molecular target: ACD2 (ACCELERATED CELL DEATH 2; ACD2^40-320; Red Chlorophyll Catabolite Reductase) (Arabidopsis thaliana); experiment: intrinsic tryptophan fluorescence quenching; format: binding; conditions: 0.1 μM protein, 50 mM Na2HPO4 pH 8.0, 25 mM NaCl, 22°C, excitation 296 nm
Sequence (Q8LDU4 40-319): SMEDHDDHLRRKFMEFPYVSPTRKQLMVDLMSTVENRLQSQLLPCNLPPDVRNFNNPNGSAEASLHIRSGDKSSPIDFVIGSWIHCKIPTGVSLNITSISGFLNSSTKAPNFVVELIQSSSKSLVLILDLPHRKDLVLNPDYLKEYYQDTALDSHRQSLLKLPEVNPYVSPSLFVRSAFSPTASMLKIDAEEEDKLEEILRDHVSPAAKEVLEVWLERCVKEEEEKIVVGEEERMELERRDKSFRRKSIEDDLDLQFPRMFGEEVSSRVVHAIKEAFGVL
Parameter: Kd (nM)
Record the value in nM, omitting the unit from your answer.

Please give the measured Kd for this compound: C=CC1=C(C)/C(=C/C2=NC(=C3\c4[nH]c(Cc5[nH]c(C=O)c(C)c5CC)c(C)c4C(=O)[C@@H]3C(=O)OC)/[C@@H](CCC(=O)O)[C@@H]2C)NC1=O 360
